experiment: Antiproliferative activity against human QGY7703 cells; type: functional, cell-based; details: QGY-7703
I'd be grateful if you could share measured IC50 for these entries.

Would you mind telling me what IC50 value was observed for CC(C)(O)c1ccc2c(c1)CC[C@H]1[C@](C)(COC(=O)CCC(=O)O)CCC[C@]21C [ABIESADINE I] ? > 25 µg/mL

Record: CC(C)[C@]12C=C3CC[C@H]4[C@](C)(C(=O)O)CCC[C@]4(C)[C@@]3(CC1)OO2 > 25 µg/mL

Okay, and CC(C)[C@]12C=C3CC[C@H]4[C@](C)(COC(=O)CCC(=O)O)CCC[C@]4(C)[C@@]3(CC1)OO2 [ABIESADINE W] ? > 25 µg/mL

Now give it for COC(=O)CCC(=O)OC[C@]1(C)CCC[C@]2(C)c3ccc(C(C)(C)O)cc3C(=O)C[C@@H]12 [ABIESADINE S] too. > 25 µg/mL

Consider next the molecule CC(C)(O)c1ccc2c(c1)C(=O)C[C@H]1[C@](C)(COC(=O)CCC(=O)O)CCC[C@]21C [ABIESADINE R] in the same way. > 25 µg/mL

Subsequent entry: CC(C)(O)c1ccc2c(c1)CC[C@H]1[C@](C)(CO)CCC[C@]21C > 25 µg/mL

Same question, CC(C)c1ccc(O)c(CC[C@@H]2[C@@](C)(O)CCC[C@@]2(C)C(=O)O)c1 [ABIESADINE B] this time > 25 µg/mL

Continue with CC(C)(O)c1ccc2c(c1)[C@H](O)C[C@H]1[C@](C)(C(=O)O)CCC[C@]21C > 25 µg/mL

Likewise for CC(C)c1ccc2c(c1)[C@H](O)C[C@H]1[C@](C)(C(=O)O)CCC[C@]21C ? > 25 µg/mL

Input CC(C)c1ccc2c(c1)C(=O)C[C@H]1[C@](C)(C(=O)O)CCC[C@]21C 10.2 µg/mL

Also C/C(=C\CO)CCC1[C@](C)(O)CC[C@H]2C(C)(C)CCC[C@]12C (some centres undefined) ? > 25 µg/mL

// repeat for CC(C)c1ccc2c(c1)[C@@H](O)C[C@H]1[C@](C)(CO)CCC[C@]21C and report > 25 µg/mL

Also C=C[C@@](C)(O)[C@H]1CC2[C@@]3(C)CCCC(C)(C)C3CC[C@@]2(C)O1 (some centres undefined) ? 15.7 µg/mL

Quick one: CC(C)C1=CC2=CC[C@@H]3[C@](C)(CCC[C@@]3(C)C(=O)O)[C@H]2CC1 [ABIETIC ACID] > 25 µg/mL

Another molecule to look at: C=C[C@@](C)(O)CC[C@H]1C(=C)CC[C@H]2C(C)(C)CCC[C@]12C [MANOOL] > 25 µg/mL

Here is the next molecule: CC(C)c1ccc2c(c1)CC[C@H]1[C@](C)(CO)CCC[C@]21C [POMIFERIN A] > 25 µg/mL

Now the molecule CO[C@@H]1C[C@H]2[C@](C)(COC(=O)CCC(=O)O)CCC[C@]2(C)c2ccc(C(C)C)cc21 [ABIESADINE G] > 25 µg/mL

Same again, this time with COc1cccc2c1C(=O)c1c(O)c3c(c(O)c1C2=O)C[C@@](O)(C(=O)CO)C[C@@H]3O[C@H]1C[C@H](N)[C@H](O)[C@H](C)O1 [DOXORUBICIN] 0.42 µg/mL

Similarly, CC(C)(O)c1ccc2c(c1)C(=O)C[C@H]1[C@](C)(C(=O)O)CCC[C@]21C ? > 25 µg/mL

Data provenance: ChEMBL document CHEMBL1157733
